system-name: Inadl_8, Q8NI35
Sequence (Q8NI35 1425-1530): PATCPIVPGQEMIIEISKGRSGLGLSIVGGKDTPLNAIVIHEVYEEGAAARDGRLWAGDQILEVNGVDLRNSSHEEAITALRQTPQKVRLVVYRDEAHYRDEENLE
experiment-summary: holdup assay
Design: key: below the threshold = too weak to quantify, mostly under pKd 3.1 to 4
test-parameters: plain residues with an end cap or a label only (N-terminal biotin on a linker: ado-ado)

| binder | pKd |
| --- | --- |
| DFLSTFHIRI [CIB2, O75838] | below the threshold |
| IDESKKEWLI [CNTNAP2, Q9UHC6] | below the threshold |
| EKCGKEFSEF [PRKACA, P17612] | below the threshold |
| ARSAAASNYV [CLDN4, O14493] | 4.06 |
| APIAGFSSFV [SDK2, Q58EX2] | 4.34 |
| EPQYQPGENL [SRC, P12931] | below the threshold |
| QKAPTKEFYA [SDC2, P34741] | below the threshold |
| ELSATVTTDC [TRIP6, Q15654] | 3.55 |
